test: TOX21_p53_BLA_p4_viability: Viability Assessment in the Tox21 HCT-116 p53 Agonism Beta-lactamase Assay, Phase 4 (AID 2283597);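 note: hits lower the luminescence signal meaning cytotoxicity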
Results filed as inconclusive are left out. Calls of active or inactive are those of the source. Rule for the calls: active = hit-call score of the fitted dose curve at least 0.9, where 1 is the maximum; inconclusive = response in the unintended direction; inactive = score below 0.9.
Outcome (select one): active, inactive

CCC(C)C(C(=O)OCC[N+](C)(CC)CC)c1ccccc1 (stereo unspecified) | inactive

Then there is this compound:
[in] Per the assay record, what outcome was assigned to `CCO[Si](OCC)(OCC)OCC` ?
[out] inactive

###

target: Cellular tumor antigen p53 (Homo sapiens); assay: TOX21_p53_BLA_p3_ratio: Tox21 HCT-116 p53 Agonism Beta-lactamase Assay, Ratio, Phase 3 (AID 2283596)
Inconclusive results are not listed. The source made the active and inactive calls. The calls were made as follows: active = hit-call score of the fitted dose curve at least 0.9, where 1 is the maximum; inconclusive = response in the unintended direction; inactive = score below 0.9.
Response enum: 1 (yes) (active), 0 (no) (inactive)

CC(CNC1CCCCC1)OC(=O)c1ccccc1 (stereo unspecified) | 0 (no)
CC(C)CCCO | 0 (no)
CC[N+](CC)(CCNC(=O)C(=O)NCC[N+](CC)(CC)Cc1ccccc1Cl)Cc1ccccc1Cl | 0 (no)
CC(C)(c1ccccc1)c1ccccc1 | 0 (no)
O=Cc1cccc(Br)c1 | 0 (no)
Cc1cc(C)cc(OCC2CNC(=O)O2)c1 (stereo unspecified) | 0 (no)
CCCCOC(=O)c1ccc(N)cc1 | 0 (no)
N[C@@H](CSSC[C@H](N)C(=O)O)C(=O)O | 0 (no)
CCOc1ccc(Cc2nccc3cc(OCC)c(OCC)cc23)cc1OCC | 0 (no)
O=c1n(CCCN2CCN(c3cccc(Cl)c3)CC2)nc2ccccn12 | 0 (no)

[in] Just curious, what result did `CCC(CO)(CO)COCC(CC)(CO)CO` get here?
[out] 0 (no)

[in] Assay outcome for `Clc1cccc(Cl)c1NC1=NCCN1` : what was it?
[out] 0 (no)

[in] Look up the recorded call for `CN(C)c1ccc(C2(c3ccc(N(C)C)cc3)OC(=O)c3cc(N(C)C)ccc32)cc1` in this test.
[out] 1 (yes)

[in] Tell me the recorded outcome of this test for `O=C(Oc1cccc2cccnc12)c1ccccc1` .
[out] 0 (no)

[in] Record request — test call for `COc1ccc(C(=O)N2CCN(CC(=O)N3CCOCC3)CC2)cc1`
[out] 0 (no)

[in] Name the outcome recorded for `CCC(C)=NO` in the assay.
[out] 0 (no)

[in] What outcome does the record of this test show for CCOC(=O)C1=C(C)NC(C)=C(C(=O)OC)C1c1cccc([N+](=O)[O-])c1 (stereo unspecified) ?
[out] 0 (no)

[in] How did this test come out for CCCCN1CCCC1C(=O)Nc1c(C)cc(C)cc1C (stereo unspecified) ?
[out] 0 (no)

[in] Each compound tested received a call. Report the one for `CC(C)C[C@@H](NC(=O)[C@@H](O)[C@H](N)Cc1ccccc1)C(=O)O` .
[out] 0 (no)

[in] Any idea what this test logged for `C[C@@H]1CN(c2c(F)c(N)c3c(=O)c(C(=O)O)cn(C4CC4)c3c2F)C[C@H](C)N1` ?
[out] 0 (no)

[in] Hi, do you know how `Oc1cc(O)c(Cl)cc1Cl` came out in this test?
[out] 0 (no)

[in] Dear all, I need the recorded test outcome for CCCCCOc1ccc(C2SC(=O)NC2=O)cc1OCC (stereo unspecified) , thank you.
[out] 0 (no)
